Test system: UO-31 renal
protocol: NCI tumour cell line growth inhibition, 48 h
quantity_kind: GI50

{"columns": ["compound_structure_string", "GI50"],
 "data": [
  ["COc1ccc2c(c1)C(=Nc1ccc(F)c(Cl)c1)c1c-2c(Nc2ccc(F)c(Cl)c2)nc2ccccc12", "> 100 µM"],
  ["CCN(CC)CCNC(=O)c1cccc2c1-c1ccccc1C2=O", "> 100 µM"],
  ["COC(=O)[C@H](Cc1cn(C)cn1)NC(=O)[C@H](CC(=O)OCc1ccccc1)NC(=O)Nc1cc(C(F)(F)F)cc(C(F)(F)F)c1", "11.5 µM"],
  ["O=C1C=C(NCCO)c2nccc3c2c1nc1ccccc13", "24.6 µM"]
]}

Would you kindly look at the next entry?
// fetch UO-31 renal GI50 for NCCCNc1nc2ccccc2c2c(=O)c3cc(F)ccc3sc12 1.27 µM

* * *

Test system: MDA-MB-231 breast
protocol: NCI tumour cell line growth inhibition, 48 h
quantity_kind: TGI (µM)
Answer with a number only, understood to be in µM.

Field: example entries. Status: answers known.
{"columns": ["compound", "quantity_kind", "uom", "measured_value"],
 "data": [
  ["CCOC(=O)C1=C(C)N(c2ccc(Cl)cc2)C2(O)C=CC(=O)C3=C(O)c4ccccc4C(=O)C312 (stereo not drawn)", "TGI", "µM", 25],
  ["Cc1ccc(N2C(=O)C3c4[nH]c5ccc(C)cc5c4C4CCC(C(C)(C)C)CC4C3C2=O)cc1 (stereo not drawn)", "TGI", "µM", 26.7],
  ["Cc1ccc(N(C=O)c2c([N+](=O)[O-])cc([N+](=O)[O-])c3c2=[N+]([O-])CN=3)cc1", "TGI", "µM", 54.5],
  ["Cc1ccc(N)cc1[As]=[As]c1cc(N)ccc1C (stereo not drawn)", "TGI", "µM", 2.82],
  ["Cc1nc2sc(C(=O)Nc3cccc(Br)c3C)c(N)c2cc1C(O)c1ccccc1 (stereo not drawn)", "TGI", "µM", 5.66]
]}

TGI for CC[C@H](C)[C@@H]([C@@H](CC(=O)N1CCC[C@H]1[C@H](OC)[C@@H](C)C(=O)NCCc1ccccc1)OC)N(C)C(=O)C(NC(=O)[C@H](C(C)C)N(C)C)C(C)C (stereo partly drawn) ? 0.00271

TGI for COc1cc(-c2nn(-c3ccc(NC(=O)Nc4cc(C(F)(F)F)cc(C(F)(F)F)c4)cc3)cc2-c2ccncc2)ccc1Cl ? 3.34

TGI for C[C@@H]1S[C@H](c2c(F)cccc2Cl)n2c1nc1ccccc12 ? 27

* * *

System: OVCAR-8 ovarian
protocol: NCI tumour cell line growth inhibition, 48 h
The entries below are paired with their reported TGI.
Answer with a number only, understood to be in µM.

Field: example entries. Status: answers known.
{"columns": ["compound", "tested_system", "TGI [µM]"],
 "data": [
  ["C=C1C(=O)O[C@H]2[C@H]1CC/C(COC(=O)c1cccnc1N)=C\\CC[C@@]1(C)O[C@@H]21", "OVCAR-8 ovarian", 16.3],
  ["C/C=C/c1cc2c(cc1O)CC[C@@H]1[C@@H]2CC[C@]2(C)[C@@H](O)CC[C@@H]12", "OVCAR-8 ovarian", 18.1],
  ["COC(=O)/C=C/CCC#Cc1ccccc1C#CCC/C=C/C(=O)OC", "OVCAR-8 ovarian", 26]
]}

Would you kindly look at the next entry?
TGI for CCOC(=O)C1=C(C)N(c2ccc(Cl)cc2)C2(O)C=CC(=O)C3=C(O)c4ccccc4C(=O)C312 (stereo unspecified) ? 19.1
